Hello, the source for this data is patent US20210024639A1, in case you need it.

Study target: native human MET on living human cells (human, UniProt P08581 25-1390)
Sequence (P08581 25-1390): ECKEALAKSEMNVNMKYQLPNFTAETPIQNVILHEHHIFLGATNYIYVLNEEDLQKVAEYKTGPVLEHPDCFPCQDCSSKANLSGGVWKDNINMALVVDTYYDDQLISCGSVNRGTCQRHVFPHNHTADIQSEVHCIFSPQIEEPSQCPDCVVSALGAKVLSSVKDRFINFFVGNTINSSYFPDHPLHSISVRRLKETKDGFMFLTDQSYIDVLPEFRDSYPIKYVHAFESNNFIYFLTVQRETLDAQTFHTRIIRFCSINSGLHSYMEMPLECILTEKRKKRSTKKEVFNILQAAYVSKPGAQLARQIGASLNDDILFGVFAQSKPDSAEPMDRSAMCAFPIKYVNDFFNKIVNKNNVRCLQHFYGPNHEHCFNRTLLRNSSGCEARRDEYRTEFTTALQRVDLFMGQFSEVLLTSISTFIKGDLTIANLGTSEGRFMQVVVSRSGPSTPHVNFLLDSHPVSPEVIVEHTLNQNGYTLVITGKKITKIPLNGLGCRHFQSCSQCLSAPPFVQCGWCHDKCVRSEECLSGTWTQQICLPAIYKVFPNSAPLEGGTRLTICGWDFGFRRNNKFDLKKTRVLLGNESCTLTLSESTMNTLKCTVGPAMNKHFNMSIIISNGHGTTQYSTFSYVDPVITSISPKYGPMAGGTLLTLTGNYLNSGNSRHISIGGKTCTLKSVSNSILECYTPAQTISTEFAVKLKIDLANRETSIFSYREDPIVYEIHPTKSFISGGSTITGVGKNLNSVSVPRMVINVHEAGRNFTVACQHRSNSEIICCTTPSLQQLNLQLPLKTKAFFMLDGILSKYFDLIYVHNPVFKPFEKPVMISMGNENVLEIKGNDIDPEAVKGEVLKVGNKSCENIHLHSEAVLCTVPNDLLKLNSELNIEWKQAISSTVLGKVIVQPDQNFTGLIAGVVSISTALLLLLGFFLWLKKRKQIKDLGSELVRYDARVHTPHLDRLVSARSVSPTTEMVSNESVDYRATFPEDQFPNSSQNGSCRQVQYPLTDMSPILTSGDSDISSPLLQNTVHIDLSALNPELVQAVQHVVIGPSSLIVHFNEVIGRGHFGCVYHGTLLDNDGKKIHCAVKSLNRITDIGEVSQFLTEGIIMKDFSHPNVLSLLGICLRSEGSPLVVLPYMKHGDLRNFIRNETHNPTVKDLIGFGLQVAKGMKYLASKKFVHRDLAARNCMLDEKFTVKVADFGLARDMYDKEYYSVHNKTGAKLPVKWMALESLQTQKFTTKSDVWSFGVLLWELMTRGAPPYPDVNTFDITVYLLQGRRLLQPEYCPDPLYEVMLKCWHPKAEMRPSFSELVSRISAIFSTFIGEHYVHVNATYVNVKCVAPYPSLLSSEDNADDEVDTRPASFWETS
Protocol description: cell-based or functional assay
Quantity measured: cell scattering score, HPAF-II, 0.037 nM (score 0-4)
Respond numerically; units are score 0-4 and should not be typed.

// solved cases for cell scattering score, HPAF-II, 0.037 nM follow
{"Binder": "chimeric llama-human IgG1 mAb 74C8 (antibody, V domains shown) VH: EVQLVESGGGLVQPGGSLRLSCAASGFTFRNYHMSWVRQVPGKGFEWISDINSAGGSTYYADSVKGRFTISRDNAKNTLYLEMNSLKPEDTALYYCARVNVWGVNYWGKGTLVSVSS VL: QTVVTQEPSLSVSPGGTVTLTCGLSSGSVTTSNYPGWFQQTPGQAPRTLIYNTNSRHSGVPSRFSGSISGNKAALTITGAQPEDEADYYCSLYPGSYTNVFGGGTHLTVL", "cell scattering score, HPAF-II, 0.037 nM / score 0-4": 1}
{"Binder": "chimeric llama-human IgG1 mAb 71G12 (antibody, V domains shown) VH: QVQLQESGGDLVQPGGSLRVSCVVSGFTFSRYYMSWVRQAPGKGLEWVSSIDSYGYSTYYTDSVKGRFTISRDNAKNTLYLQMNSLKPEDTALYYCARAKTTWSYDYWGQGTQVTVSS VL: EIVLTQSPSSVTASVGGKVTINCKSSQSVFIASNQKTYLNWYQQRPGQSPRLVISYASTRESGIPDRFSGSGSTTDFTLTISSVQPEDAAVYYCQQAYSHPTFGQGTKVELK", "cell scattering score, HPAF-II, 0.037 nM / score 0-4": 0}
{"Binder": "chimeric llama-human IgG1 mAb 72F8 (antibody, V domains shown) VH: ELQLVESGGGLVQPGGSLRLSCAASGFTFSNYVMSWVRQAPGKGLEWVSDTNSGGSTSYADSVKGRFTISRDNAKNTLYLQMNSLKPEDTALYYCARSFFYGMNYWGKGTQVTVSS VL: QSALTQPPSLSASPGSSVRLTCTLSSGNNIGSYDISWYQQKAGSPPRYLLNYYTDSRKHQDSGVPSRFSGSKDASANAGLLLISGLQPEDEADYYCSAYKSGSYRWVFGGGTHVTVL", "cell scattering score, HPAF-II, 0.037 nM / score 0-4": 0}
{"Binder": "chimeric llama-human IgG1 mAb 71G2 (antibody, V domains shown) VH: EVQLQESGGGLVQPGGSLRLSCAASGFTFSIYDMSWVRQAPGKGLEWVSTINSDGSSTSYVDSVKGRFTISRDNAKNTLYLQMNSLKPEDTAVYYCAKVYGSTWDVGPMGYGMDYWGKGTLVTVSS VL: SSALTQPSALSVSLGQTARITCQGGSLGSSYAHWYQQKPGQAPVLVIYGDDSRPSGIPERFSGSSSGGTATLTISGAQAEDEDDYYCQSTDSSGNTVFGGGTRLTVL", "cell scattering score, HPAF-II, 0.037 nM / score 0-4": 3}

Query: I would be grateful if you could share the reported cell scattering score, HPAF-II, 0.037 nM for chimeric llama-human IgG1 mAb 71D4 (antibody, V domains shown) VH: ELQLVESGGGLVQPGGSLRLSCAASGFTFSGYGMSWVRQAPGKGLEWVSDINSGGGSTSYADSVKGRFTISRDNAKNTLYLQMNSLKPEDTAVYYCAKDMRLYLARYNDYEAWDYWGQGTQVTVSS VL: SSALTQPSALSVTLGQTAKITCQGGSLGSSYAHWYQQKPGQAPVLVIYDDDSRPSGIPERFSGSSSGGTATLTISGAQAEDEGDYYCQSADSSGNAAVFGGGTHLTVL .
Response: 0
